Test: phase I two-part drug-drug interaction study, plasma pharmacokinetics (Example 1)
Type: in vivo, human
Details: male, human, plasma, oral, 200 mg, 200 mg belumosudil single dose alone; read-out: AUClast, geometric mean (geometric CV %)
Experimental: The secondary objective was to provide additional information on the safety and tolerability of this dose regimen in healthy males. This was a single center, non-randomized, DDI study in 35 (Part 1) and 38 (Part 2) healthy males. […] For each comparison, PK parameters were natural log transformed and analyzed using mixed effect modeling with treatment included as a fixed effect and subject as a random effect. Adjusted geometric mean ratios (GMRs) and corresponding 90% CIs were calculated.
OBSERVED_PROPERTY: AUC(0-t) (ng·h/mL)
Output spec: scalar in ng·h/mL, unitless text.

Entry "CC(C)NC(=O)COc1cccc(-c2nc(Nc3ccc4[nH]ncc4c3)c3ccccc3n2)c1" — recorded AUC(0-t) = 8750
